# credit: patent US20220396565A1

Recorded IC90, one value per entry.
System: Acinetobacter baumannii ATCC17978
assay-text: Antimicrobial susceptibility testing: 90% growth inhibitory concentration (IC90) determination, Iso-Sensitest broth
Assay type: cell-based
assay-context: 90% growth inhibitory concentration, Acinetobacter baumannii ATCC17978, Iso-Sensitest broth; read-out: ATCC 17978 IC90
Where a name gives a salt, the structure may show the parent alone.
Numeric only. Scale: nM

Identify the measured IC90 of CNCC(=O)N1CCN(C(=O)c2ccc(NC(=O)c3ncc(-c4ccc(OC)c(F)c4F)n3C)cc2Cl)CC1 [Example 105, trifluoroacetate] for Acinetobacter baumannii ATCC17978. 70

More entries:
Identify the measured IC90 of CN(C)CCN1CCN(C(=O)c2ccc(NC(=O)c3ncc(-c4ccc(OCC#N)c(F)c4Cl)n3C)cc2Cl)CC1 [Example 270] for Acinetobacter baumannii ATCC17978. 50

Let us now turn to Cn1c(-c2ccc(OCC#N)c(F)c2F)cnc1C(=O)Nc1ccc(C(=O)N2CCC(C(=O)N3CCSCC3)CC2)c(Cl)c1 [Example 76] 210

###

Test system: Acinetobacter baumannii ATCC17961
assay-text: Antimicrobial susceptibility testing: 90% growth inhibitory concentration (IC90) determination, Iso-Sensitest broth
Assay type: cell-based
assay-context: Acinetobacter baumannii, ATCC17961, 90% growth inhibitory concentration, Acinetobacter baumannii ATCC17961, Iso-Sensitest broth; read-out: ATCC 17961 IC90
Where a name gives a salt, the structure may show the parent alone.
Recorded IC90, one value per entry.
Numeric only. Scale: nM

Worked examples follow.
I have this molecule here, Cn1c(-c2ccc(OC(F)F)c(F)c2F)cnc1C(=O)Nc1ccc(C(=O)N2CCC(C(=O)N[C@H]3[C@@H]4CNC[C@@H]43)CC2)c(Cl)c1 , and I need its recorded IC90. 60

Let us now turn to COc1ccc(-c2cnc(C(=O)Nc3ccc(C(=O)N4CC(C(=O)N5CC(CN)C5)C4)c(Cl)c3)n2C)c(F)c1F [Example 66, formate] 140

Let us now turn to COc1ccc(-c2cnc(C(=O)Nc3ccc(C(=O)N4CCN(C(=O)CC5(O)CCNCC5)CC4)c(Cl)c3)n2C)c(F)c1F [Example 161, formate] 30

Let us now turn to COc1ccc(-c2cnc(C(=O)Nc3ccc(C(=O)N4CCC(C(=O)NCC5CCNCC5)CC4)c(Cl)c3)n2C)c(F)c1F [Example 35, formate] 60

Let us now turn to Cn1c(-c2ccc(OC(F)F)cc2F)cnc1C(=O)Nc1ccc(C(=O)N2CCN(C(=O)CC3CNC3)CC2)c(Cl)c1 [Example 178, formate] 70

Could you now look at the following molecule, please?
I have this molecule here, COc1ccc(-c2cnc(C(=O)Nc3ccc(C(=O)N4CCC(NC(=O)CCN)CC4)c(Cl)c3)n2C)c(F)c1F [Example 103, formate] , and I need its recorded IC90. 60

###

Recorded IC90, one value per entry.
Test system: Acinetobacter baumannii ATCC17961
assay-text: Antimicrobial susceptibility testing: 90% growth inhibitory concentration (IC90) determination, Iso-Sensitest broth
Type: cell-based
assay-context: Acinetobacter baumannii, ATCC17961, 90% growth inhibitory concentration, Acinetobacter baumannii ATCC17961, Iso-Sensitest broth; read-out: ATCC 17961 IC90
Where a name gives a salt, the structure may show the parent alone.
Numeric only. Scale: nM

Worked examples follow.
I have this compound here, Cn1c(-c2ccc(F)c(C#N)c2F)cnc1C(=O)Nc1ccc(C(=O)N2CCN(C(=O)C3CCNCC3)CC2)c(Cl)c1 [Example 193, formate] , and I need its recorded IC90. 2590

Let us now turn to COc1ccc(-c2cnc(C(=O)Nc3ccc(C(=O)N4CCC(C(=O)NC[C@H]5CCNC5)CC4)c(Cl)c3)n2C)c(F)c1F [Example 56, formate] 70

Could you now look at the following compound, please?
I have this compound here, Cn1c(-c2ccc(OC(F)F)c(F)c2F)cnc1C(=O)Nc1ccc(C(=O)N2CCC(C(=O)NC3CCNCC3)CC2)c(Cl)c1 [Example 94, formate] , and I need its recorded IC90. 40
